The measured values listed here are drawn from ChEMBL document CHEMBL4834402.

- targetUnderTest: NEDD8 activating enzyme (Homo sapiens, UniProt Q8TBC4)
- Sequence (Q8TBC4 whole entry): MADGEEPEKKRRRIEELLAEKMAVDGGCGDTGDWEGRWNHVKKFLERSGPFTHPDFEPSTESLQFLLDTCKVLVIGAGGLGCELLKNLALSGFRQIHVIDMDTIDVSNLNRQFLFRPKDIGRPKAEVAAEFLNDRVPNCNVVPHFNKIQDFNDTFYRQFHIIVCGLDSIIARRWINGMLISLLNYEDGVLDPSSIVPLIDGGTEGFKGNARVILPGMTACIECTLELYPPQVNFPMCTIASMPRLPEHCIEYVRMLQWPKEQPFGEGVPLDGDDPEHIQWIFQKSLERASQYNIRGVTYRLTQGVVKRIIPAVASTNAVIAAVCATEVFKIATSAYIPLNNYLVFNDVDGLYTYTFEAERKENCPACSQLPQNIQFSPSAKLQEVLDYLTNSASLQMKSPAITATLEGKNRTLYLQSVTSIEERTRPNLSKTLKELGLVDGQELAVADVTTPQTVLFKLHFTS
- Sequence (Q13564 whole entry, further chain): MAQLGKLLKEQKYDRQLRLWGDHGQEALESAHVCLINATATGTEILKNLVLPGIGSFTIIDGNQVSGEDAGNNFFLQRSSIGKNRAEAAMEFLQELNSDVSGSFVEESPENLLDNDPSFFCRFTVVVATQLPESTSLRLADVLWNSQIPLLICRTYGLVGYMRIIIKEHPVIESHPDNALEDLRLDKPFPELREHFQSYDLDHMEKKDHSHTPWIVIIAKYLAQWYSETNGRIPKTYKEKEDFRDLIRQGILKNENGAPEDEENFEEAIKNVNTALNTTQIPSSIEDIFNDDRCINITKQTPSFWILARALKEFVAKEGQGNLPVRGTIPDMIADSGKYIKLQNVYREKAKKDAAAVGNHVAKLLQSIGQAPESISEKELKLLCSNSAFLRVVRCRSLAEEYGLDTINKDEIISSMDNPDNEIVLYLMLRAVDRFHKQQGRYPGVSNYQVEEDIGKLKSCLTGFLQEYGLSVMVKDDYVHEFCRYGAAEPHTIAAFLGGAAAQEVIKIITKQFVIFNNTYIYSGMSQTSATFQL
- methodNotes: Inhibition of recombinant NAE (unknown origin) in presence of ATP at Km concentration by HTRF assay
- Type: protein-complex assay
recordedEndpoint: IC50 (µM)
Give a bare numeral; the unit µM is implied.

Lookup result for `NS(=O)(=O)OC[C@H]1C[C@@H](Nc2ncncc2C(=O)c2cc(Cc3cccc(Cl)c3)c(Cl)s2)C[C@@H]1O` ; measured IC50: 0.681

Value of measured IC50 for the entry NC(c1cccc(Cl)c1)c1csc(C(=O)c2cncnc2N[C@@H]2C[C@H](COS(N)(=O)=O)[C@@H](O)C2)c1 (stereo in doubt; 32) : 0.328

Recorded IC50 (molecule `NS(=O)(=O)OC[C@H]1C[C@@H](Nc2ncncc2C(=O)c2ccn(Cc3cccc(C(F)(F)F)c3)n2)C[C@@H]1O` ): 0.695

IC50 reading for `NS(=O)(=O)OC[C@H]1C[C@@H](Nc2ncncc2C(=O)c2ccc(Cc3cccc(Br)c3)o2)C[C@@H]1O` : 0.267

Quick note, IC50 for Cc1sc(C(=O)c2cncnc2N[C@@H]2C[C@H](COS(N)(=O)=O)[C@@H](O)C2)cc1C1OCCc2ccc(Cl)cc21 (stereo in doubt) landed at 0.386

// IC50 lookup, molecule = NC(c1cccc(Cl)c1)c1cc(C(=O)c2cncnc2N[C@@H]2C[C@H](COS(N)(=O)=O)[C@@H](O)C2)sc1Cl (stereo not given in full) , result: 0.861

Form field IC50, entry `Cc1sc(C(=O)c2cncnc2N[C@@H]2C[C@H](COS(N)(=O)=O)[C@@H](O)C2)cc1[C@H]1NCCc2ccc(Cl)cc21` : 0.554

Value of measured IC50 for the entry `NS(=O)(=O)OC[C@H]1C[C@@H](Nc2ncncc2C(=O)c2ccn(CC3CCCCC3)n2)C[C@@H]1O` : 0.276

So for CC(O)(c1csc(C(=O)c2cncnc2N[C@@H]2C[C@H](COS(N)(=O)=O)[C@@H](O)[C@H]2O)c1)c1cccc(Br)n1 (stereo not given in full) , the logged IC50 turned out to be 0.031

Item: Cc1sc(C(=O)c2cncnc2N[C@@H]2C[C@H](COS(N)(=O)=O)[C@@H](O)C2)cc1C1OCCc2ccc(Cl)nc21 (stereo not given in full) | IC50: 0.203

// recorded IC50 for NS(=O)(=O)OC[C@H]1C[C@@H](Nc2ncncc2C(=O)c2cc(C3OCCc4c(Cl)cccc43)cs2)C[C@@H]1O (stereo not given in full) : 0.265

Record summary for `NS(=O)(=O)OC[C@H]1C[C@@H](Nc2ncncc2C(=O)c2ccn(Cc3ccccc3)n2)[C@@H](F)[C@@H]1O` : reported IC50 = 0.688

Looking up `NS(=O)(=O)OC[C@H]1C[C@@H](Nc2ncncc2C(=O)c2cnn(Cc3ccccc3)c2)C[C@@H]1O` , I found its IC50 recorded as 0.122

---

- methodNotes: Volume of distribution at steady state in rat blood at 1 mg/kg, iv
- Assay type: ADME, organism-based
- runConditions: read-out: Vdss
For each entry below, report its Vd value.
Give the quantity in L/kg, number only.

The molecule listed as `Cc1sc(C(=O)c2cncnc2N[C@@H]2C[C@H](COS(N)(=O)=O)[C@@H](O)C2)cc1[C@@H]1NCCc2ccc(Cl)cc21` has a reported Vd of 0.2

Value of measured Vd for the entry Cc1sc(C(=O)c2cncnc2N[C@@H]2C[C@H](COS(N)(=O)=O)[C@@H](O)C2)cc1C1OCCc2ccc(Cl)cc21 (stereo in doubt) : 0.2

The molecule listed as `NS(=O)(=O)OC[C@H]1C[C@@H](Nc2ncncc2C(=O)c2ccn(Cc3cccc(Br)c3)n2)C[C@@H]1O` has a reported Vd of 0.1

---

- targetUnderTest: NEDD8 activating enzyme (Homo sapiens, UniProt Q8TBC4)
- methodNotes: Inhibition of recombinant NAE (unknown origin) in presence of ATP at Km concentration by HTRF assay
- Assay type: protein-complex assay
API: label(entry) gives T if the entry's IC50 is strictly smaller than 200 nM; on equality or larger values it gives F.

stdin: Check if IC50 falls below 200 nM for `N#Cc1sc(C(=O)c2cncnc2N[C@@H]2C[C@H](COS(N)(=O)=O)[C@@H](O)C2)cc1Cc1cccc(Cl)c1` .
stdout: F

stdin: API: query returns whether the compound falls strictly under 200 nM in IC50. Query: `NS(=O)(=O)OC[C@H]1C[C@@H](Nc2ncncc2C(=O)c2ccn(Cc3ccccc3)n2)C[C@@H]1O`
stdout: T

stdin: Would you kindly verify if IC50 of Cc1sc(C(=O)c2cncnc2N[C@@H]2C[C@H](COS(N)(=O)=O)[C@@H](O)C2)cc1C1OCCc2ccc(Cl)cc21 (stereo in doubt; 47) is strictly less than 200 nM?
stdout: T

stdin: Say whether its IC50 is strictly beneath 200 nM. Entry: `NS(=O)(=O)OC[C@H]1C[C@@H](Nc2ncncc2C(=O)c2ccn(Cc3cccc(OC(F)(F)F)c3)n2)C[C@@H]1O`
stdout: F

stdin: For NS(=O)(=O)OC[C@H]1C[C@@H](Nc2ncncc2C(=O)c2cc(C(O)c3cccc(Cl)c3)c(Cl)s2)C[C@@H]1O (some centres not stated) , is the recorded IC50 below the cut-off of 200 nM?
stdout: F

stdin: # strict comparison: is reported IC50 < 200 nM? input = `NS(=O)(=O)OC[C@H]1C[C@@H](Nc2ncncc2C(=O)c2ccn(Cc3cccc(Cl)n3)n2)C[C@@H]1O`
stdout: F

---

- targetUnderTest: SUMO-activating enzyme (Homo sapiens)
- Sequence (Q9UBE0 whole entry): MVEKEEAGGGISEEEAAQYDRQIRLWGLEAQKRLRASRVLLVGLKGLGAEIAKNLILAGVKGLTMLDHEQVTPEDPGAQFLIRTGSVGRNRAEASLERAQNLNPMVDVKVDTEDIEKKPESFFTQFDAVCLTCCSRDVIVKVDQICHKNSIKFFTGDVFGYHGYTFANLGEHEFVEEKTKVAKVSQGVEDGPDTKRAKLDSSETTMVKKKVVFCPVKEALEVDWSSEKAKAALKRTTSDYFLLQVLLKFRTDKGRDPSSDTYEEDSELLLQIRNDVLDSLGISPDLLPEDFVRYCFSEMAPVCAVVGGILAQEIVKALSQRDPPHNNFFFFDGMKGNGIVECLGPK
- Sequence (Q9UBT2 whole entry): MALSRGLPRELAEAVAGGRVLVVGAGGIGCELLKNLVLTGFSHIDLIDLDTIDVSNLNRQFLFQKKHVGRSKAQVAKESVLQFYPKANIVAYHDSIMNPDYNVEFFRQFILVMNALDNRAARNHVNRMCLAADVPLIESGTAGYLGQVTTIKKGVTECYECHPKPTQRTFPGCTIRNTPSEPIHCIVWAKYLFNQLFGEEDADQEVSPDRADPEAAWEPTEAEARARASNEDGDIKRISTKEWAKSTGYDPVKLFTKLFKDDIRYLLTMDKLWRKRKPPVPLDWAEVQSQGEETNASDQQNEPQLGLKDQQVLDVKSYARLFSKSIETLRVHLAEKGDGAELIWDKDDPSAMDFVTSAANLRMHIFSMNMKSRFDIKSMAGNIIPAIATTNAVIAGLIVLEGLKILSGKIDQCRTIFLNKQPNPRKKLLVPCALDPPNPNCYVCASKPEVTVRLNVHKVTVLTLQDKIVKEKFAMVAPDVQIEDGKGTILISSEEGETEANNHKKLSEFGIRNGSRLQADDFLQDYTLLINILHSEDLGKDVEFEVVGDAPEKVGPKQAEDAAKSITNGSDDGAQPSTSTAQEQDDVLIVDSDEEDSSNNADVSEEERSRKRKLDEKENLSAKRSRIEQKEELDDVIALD
- methodNotes: Inhibition of SAE in human HCT116 cells assessed as reduction in redistribution of SUMO2/3 proteins from nucleus to cytosol incubated for 4 hrs by immunofluorescence assay
- Type: cell-based, HCT-116
Give IC50 for every item shown.
Answer format: numeric, nM implied, no suffix.

Lab note: measured IC50 of NS(=O)(=O)OC[C@H]1C[C@@H](Nc2ncncc2C(=O)c2cc(C3NCCc4ccccc43)cs2)C[C@@H]1O (some centres not stated) was 78

# molecule NS(=O)(=O)OC[C@H]1C[C@@H](Nc2ncncc2C(=O)c2cc(C(O)c3cccc(Cl)n3)c(Cl)s2)C[C@@H]1O (some centres not stated) ; its IC50 = 14

For record `NS(=O)(=O)OC[C@H]1C[C@@H](Nc2ncncc2C(=O)c2ccn(Cc3cccc(F)c3)n2)C[C@@H]1O` the listed IC50 is 515

For NC(c1cccc(Cl)c1)c1csc(C(=O)c2cncnc2N[C@@H]2C[C@H](COS(N)(=O)=O)[C@@H](O)C2)c1 (stereo in doubt; 33) the molecule record lists IC50 as 50

Note to self: IC50 recorded for `NS(=O)(=O)OC[C@H]1C[C@@H](Nc2ncncc2C(=O)c2ccn(Cc3cccc(C(F)(F)F)c3)n2)C[C@@H]1O` was 39

Noted for CC(N)(c1cccc(Cl)c1)c1csc(C(=O)c2cncnc2N[C@@H]2C[C@H](COS(N)(=O)=O)[C@@H](O)C2)c1 (some centres not stated) : its IC50 reads 16

---

- methodNotes: Inhibition of recombinant UAE (unknown origin) in presence of ATP at Km concentration by HTRF assay
- Parameters: species or system Homo sapiens
pIC50: −log10 of the molar value.
Consider the following compounds; for each one, report its pIC50.

So, `NS(=O)(=O)OC[C@H]1C[C@@H](Nc2ncncc2C(=O)c2cc(Cc3cccc(Cl)c3)c(Cl)s2)C[C@@H]1O` ? Its pIC50 was < 6.00

Lab book: pIC50 of `NS(=O)(=O)OC[C@H]1C[C@@H](Nc2ncncc2C(=O)c2ccn(Cc3ccc(Cl)s3)n2)C[C@@H]1O` noted as < 6.00

Data point: `NS(=O)(=O)OC[C@H]1C[C@@H](Nc2ncncc2C(=O)c2ccn(CC3CCCCC3)n2)C[C@@H]1O` ; pIC50 = < 6.00

Record `NS(=O)(=O)OC[C@H]1C[C@@H](Nc2ncncc2C(=O)c2ccn(Cc3cccc(C(F)(F)F)c3)n2)C[C@@H]1O` . Reported pIC50: < 6.00

Record `NS(=O)(=O)OC[C@H]1C[C@@H](Nc2ncncc2C(=O)c2ccc(Cc3cccc(Br)c3)o2)C[C@@H]1O` , field pIC50: < 6.00

# compound NS(=O)(=O)OC[C@H]1C[C@@H](Nc2ncncc2C(=O)c2cc(C3OCCc4ccc(Cl)cc43)c(Cl)s2)C[C@@H]1O (stereo not given in full) ; its pIC50 = < 6.00

Recorded result, `NS(=O)(=O)OC[C@H]1C[C@@H](Nc2ncncc2C(=O)c2ccn(Cc3ccccc3)n2)C[C@@H]1O` , pIC50: < 6.00

Entry NC(c1cccc(Cl)c1)c1csc(C(=O)c2cncnc2N[C@@H]2C[C@H](COS(N)(=O)=O)[C@@H](O)C2)c1 (stereo in doubt; 32) ; pIC50 = < 6.00

// sample `N#Cc1sc(C(=O)c2cncnc2N[C@@H]2C[C@H](COS(N)(=O)=O)[C@@H](O)C2)cc1Cc1cccc(Cl)c1` , its pIC50 was < 6.00

// field: pIC50; key: `C#Cc1cccc(Cn2ccc(C(=O)c3cncnc3N[C@@H]3C[C@H](COS(N)(=O)=O)[C@@H](O)C3)n2)c1` ; value = < 6.00

// pIC50 lookup, compound = `NS(=O)(=O)OC[C@H]1C[C@@H](Nc2ncncc2C(=O)c2ccn(Cc3ccc(Cl)o3)n2)C[C@@H]1O` , result: < 6.00

Entry `NS(=O)(=O)OC[C@H]1C[C@@H](Nc2ncncc2C(=O)c2ccn(Cc3cccc(Br)c3)c2)C[C@@H]1O` ; pIC50 = < 6.00

# compound Cc1sc(C(=O)c2cncnc2N[C@@H]2C[C@H](COS(N)(=O)=O)[C@@H](O)C2)cc1C1OCCc2ccc(Cl)nc21 (stereo not given in full) ; its pIC50 = < 6.00

// NS(=O)(=O)OC[C@H]1C[C@@H](Nc2ncncc2C(=O)c2cc(C3OCCc4ccc(Cl)cc43)cs2)C[C@@H]1O (stereo not given in full) : pIC50 value = < 6.00

Value of measured pIC50 for the entry `NS(=O)(=O)OC[C@H]1C[C@@H](Nc2ncncc2C(=O)c2ccn(Cc3cccc(Cl)n3)n2)C[C@@H]1O` : < 6.00
